Test system: MCF-7 (hormone-dependent breast cancer)
Experiment: MTT cytotoxicity assay, MCF-7
Assay type: cell-based
Conditions: Homo sapiens, MCF7; MTT, 48 h incubation; read-out: IC50 MCF-7
EXPERIMENTAL_ENDPOINT: IC50 (µM)
Answer format: numeric, µM implied, no suffix.

Bench note: what IC50 did COc1cc(/C=C/C(=O)CC(=O)/C=C/c2ccc(O)c(OC)c2)ccc1O show?
20

----------
Tested on: MCF-10A (non-tumour breast epithelial cells)
Assay: MTT cytotoxicity assay, MCF-10A
Format: cell-based
Details: MTT, 48 h incubation; read-out: IC50 MCF-10A
EXPERIMENTAL_ENDPOINT: IC50 (µM)
The reply should contain only the number, in µM.

Known IC50 results, listed for orientation:
>  <COMPOUND>
COc1cc(C=CC(=O)C=C([O-])C=Cc2ccc(O)c(OC)c2)ccc1O.F[P-](F)(F)(F)(F)F.[Ru+2].c1ccc(-c2ccccn2)nc1.c1ccc(P(c2ccccc2)c2ccccc2)cc1.c1ccc(P(c2ccccc2)c2ccccc2)cc1 [Ru3, [Ru(cur)(PPh3)2(bipy)]PF6]

>  <RECORDED_VALUE>
6.41

$$$$
>  <COMPOUND>
CC(=O)C=C(C)[O-].F[P-](F)(F)(F)(F)F.[Ru+2].c1ccc(-c2ccccn2)nc1.c1ccc(P(c2ccccc2)c2ccccc2)cc1.c1ccc(P(c2ccccc2)c2ccccc2)cc1 [Ru1, [Ru(acac)(PPh3)2(bipy)]PF6]

>  <RECORDED_VALUE>
1.7

$$$$
>  <COMPOUND>
F[P-](F)(F)(F)(F)F.O=C(C=C([O-])c1ccccc1)c1ccccc1.[Ru+2].c1ccc(-c2ccccn2)nc1.c1ccc(P(c2ccccc2)c2ccccc2)cc1.c1ccc(P(c2ccccc2)c2ccccc2)cc1 [Ru2, [Ru(dbm)(PPh3)2(bipy)]PF6]

>  <RECORDED_VALUE>
1.71

$$$$

// moving on: another record for IC50
// fetch MCF-10A (non-tumour breast epithelial cells) IC50 for N.N.[Cl][Pt][Cl] [cisplatin, cis-diamminedichloridoplatinum(II)]
29.4

----------
Test system: A549 (lung cancer)
Experiment: MTT cytotoxicity assay, A549
Type: cell-based
Conditions: Homo sapiens, A549, 48 h, read-out: IC50 A549
EXPERIMENTAL_ENDPOINT: pIC50
Scale: negative log10 of molar concentration, which is what pIC50 denotes.

Suppose we examine the compound O=C(CC(=O)c1ccccc1)c1ccccc1 ; what pIC50 value has been reported?
4.64

----------
System: A549 (lung cancer)
Experiment: MTT cytotoxicity assay, A549
Format: cell-based
Details: Homo sapiens, A549; MTT, 48 h incubation; read-out: IC50 A549
Experimental: HTB-26), MCF-7 (hormone-dependent breast cancer, ATCC: HTB−22), A549 (lung cancer, ATCC: CCL-185) and A2780cis (cisplatin-resistant ovarian cancer), and the non-tumour cell lines: MCF-10A (breast epithelial cells, ATCC: CRL-10317) and MRC-5 (lung fibroblast, ATCC: […] All the cells were maintained at 37°C in a humidified incubator with a 5% CO2 atmosphere. […] The absorbance was recorded at 540 nm using a microplate reader. […]
EXPERIMENTAL_ENDPOINT: IC50

>  <COMPOUND>
CC(=O)CC(C)=O [acac, acetylacetonate]

>  <IC50>
> 100 µM

$$$$

Note: attention shifts to another entry.
Any idea what its IC50 is? The compound is COc1cc(/C=C/C(=O)CC(=O)/C=C/c2ccc(O)c(OC)c2)ccc1O
33.3 µM

Data origin: paper PMC11289651
